Cited source for all entries: patent US20200247894A1

studySystem: T1, Human IL2Rγ extracellular domain expressed with a C-terminal myc-myc-hexahistidine tag (human)
T1 construct: also called hIL-2Rg-MMH; hIL-2RG-MMH
T1 chain: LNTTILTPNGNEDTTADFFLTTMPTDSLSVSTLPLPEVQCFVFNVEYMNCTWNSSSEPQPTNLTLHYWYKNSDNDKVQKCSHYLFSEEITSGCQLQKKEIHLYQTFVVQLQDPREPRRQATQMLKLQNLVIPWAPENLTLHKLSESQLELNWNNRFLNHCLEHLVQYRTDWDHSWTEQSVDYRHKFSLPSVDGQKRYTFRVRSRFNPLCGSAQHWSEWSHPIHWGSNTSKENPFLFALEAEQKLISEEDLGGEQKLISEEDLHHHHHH
experimentalProtocol: SPR Biacore 4000, mAb captured by anti-hFc, HBS-ET, 37C
observedProperty: t1/2

>>> testvalue("H4H12884P (antibody, human IgG4 S228P, kappa, V domains shown, anti-IL2Rγ monoclonal antibody expressed with human IgG4 Fc) VH: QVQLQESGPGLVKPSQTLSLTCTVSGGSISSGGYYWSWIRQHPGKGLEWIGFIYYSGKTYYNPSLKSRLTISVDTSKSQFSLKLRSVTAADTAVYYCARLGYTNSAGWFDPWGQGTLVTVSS VL: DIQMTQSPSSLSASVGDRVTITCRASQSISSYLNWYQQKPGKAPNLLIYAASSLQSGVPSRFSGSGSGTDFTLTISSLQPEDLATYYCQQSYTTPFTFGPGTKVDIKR")
"3.4 min"
>>> testvalue("H4H12871P (antibody, human IgG4 S228P, kappa, V domains shown, anti-IL2Rγ monoclonal antibody expressed with human IgG4 Fc; also called REGN9434) VH: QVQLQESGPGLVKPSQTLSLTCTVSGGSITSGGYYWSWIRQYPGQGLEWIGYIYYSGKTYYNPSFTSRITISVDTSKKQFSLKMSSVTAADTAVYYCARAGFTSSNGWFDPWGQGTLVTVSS VL: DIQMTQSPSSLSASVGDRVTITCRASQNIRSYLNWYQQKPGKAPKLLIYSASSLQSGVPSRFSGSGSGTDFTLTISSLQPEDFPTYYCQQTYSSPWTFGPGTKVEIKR")
"4 min"
>>> testvalue("H4H13541P (antibody, human IgG4 S228P, kappa, V domains shown, anti-IL2Rγ monoclonal antibody expressed with human IgG4 Fc) VH: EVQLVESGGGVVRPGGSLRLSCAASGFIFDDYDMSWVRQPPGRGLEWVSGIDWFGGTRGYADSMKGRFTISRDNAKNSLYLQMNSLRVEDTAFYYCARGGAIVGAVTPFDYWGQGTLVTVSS VL: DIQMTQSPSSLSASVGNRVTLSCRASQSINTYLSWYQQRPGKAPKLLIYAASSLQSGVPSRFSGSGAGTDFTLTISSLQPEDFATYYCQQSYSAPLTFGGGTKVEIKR")
"15 min"
>>> testvalue("H4H12900P (antibody, human IgG4 S228P, kappa, V domains shown, anti-IL2Rγ monoclonal antibody expressed with human IgG4 Fc) VH: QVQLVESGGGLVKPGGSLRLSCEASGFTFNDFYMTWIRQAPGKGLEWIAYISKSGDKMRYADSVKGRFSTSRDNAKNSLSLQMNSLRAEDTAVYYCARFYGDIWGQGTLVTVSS VL: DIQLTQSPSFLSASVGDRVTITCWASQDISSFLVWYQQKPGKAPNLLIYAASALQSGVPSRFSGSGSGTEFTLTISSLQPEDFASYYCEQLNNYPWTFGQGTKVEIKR")
"6 min"
>>> testvalue("H4H12874P (antibody, human IgG4 S228P, kappa, V domains shown, anti-IL2Rγ monoclonal antibody expressed with human IgG4 Fc) VH: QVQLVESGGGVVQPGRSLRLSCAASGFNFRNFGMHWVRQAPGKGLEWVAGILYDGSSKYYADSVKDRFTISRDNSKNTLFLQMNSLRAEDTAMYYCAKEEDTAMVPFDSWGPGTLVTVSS VL: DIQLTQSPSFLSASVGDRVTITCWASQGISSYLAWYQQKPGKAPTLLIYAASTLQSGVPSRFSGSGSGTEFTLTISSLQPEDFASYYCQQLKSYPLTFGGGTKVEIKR")
"9 min"
>>> testvalue("H4H12889P (antibody, human IgG4 S228P, kappa, V domains shown, anti-IL2Rγ monoclonal antibody expressed with human IgG4 Fc; also called REGN7257) VH: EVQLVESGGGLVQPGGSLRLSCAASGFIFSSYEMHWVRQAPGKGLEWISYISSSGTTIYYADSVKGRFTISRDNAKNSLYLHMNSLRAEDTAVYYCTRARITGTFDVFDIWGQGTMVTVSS VL: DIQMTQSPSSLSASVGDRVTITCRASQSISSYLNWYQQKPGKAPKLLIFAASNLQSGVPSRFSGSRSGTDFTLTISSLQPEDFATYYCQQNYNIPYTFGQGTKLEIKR")
"6 min"
